Sourced from ChEMBL document CHEMBL1909046

- target_entity: Histamine H2 receptor (Homo sapiens, UniProt P25021); note: in other assays of this panel Not Active means under 50% inhibition at 10 µM
- Sequence (P25021 whole entry): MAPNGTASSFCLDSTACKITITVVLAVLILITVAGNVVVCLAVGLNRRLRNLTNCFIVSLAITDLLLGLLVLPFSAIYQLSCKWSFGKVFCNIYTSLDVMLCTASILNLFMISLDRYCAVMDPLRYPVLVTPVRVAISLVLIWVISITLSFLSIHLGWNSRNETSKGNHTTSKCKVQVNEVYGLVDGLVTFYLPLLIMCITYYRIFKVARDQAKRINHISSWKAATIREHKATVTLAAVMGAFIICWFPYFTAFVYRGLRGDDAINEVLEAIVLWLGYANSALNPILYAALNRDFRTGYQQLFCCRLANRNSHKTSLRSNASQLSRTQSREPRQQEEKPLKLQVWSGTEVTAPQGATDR
- Assay type: cell membranes, CHO-K1, Membrane
- run_parameters: cho-k1
assay_endpoint: IC50

NC(=O)c1ccccc1O [SALICYLAMIDE]    Not Active
COc1cc(C(=O)NC2CCCNC2)cc(OC)c1OC (centres undefined) [TROXIPIDE]    Not Active
C=C1CC[C@H](O)C/C1=C/C=C1\CCC[C@]2(C)[C@@H]([C@H](C)/C=C/[C@H](C)C(C)C)CC[C@@H]12    Not Active
COc1c(N2CCNC(C)C2)c(F)cc2c(=O)c(C(=O)O)cn(C3CC3)c12 (centres undefined)    Not Active

State, for Histamine H2 receptor (Homo sapiens, UniProt P25021), measured IC50 of the molecule listed here: `Cc1[nH]cnc1CN1CCc2c(c3ccccc3n2C)C1=O`
Not Active

State, for Histamine H2 receptor (Homo sapiens, UniProt P25021), measured IC50 of the molecule listed here: `CCCc1cc(=O)[nH]c(=S)[nH]1`
Not Active

State, for Histamine H2 receptor (Homo sapiens, UniProt P25021), measured IC50 of the molecule listed here: `CCCCCCCCCc1ccc(O)cc1`
Not Active

State, for Histamine H2 receptor (Homo sapiens, UniProt P25021), measured IC50 of the molecule listed here: `COC(=O)[C@H](c1ccccc1Cl)N1CCc2sccc2C1`
Not Active

State, for Histamine H2 receptor (Homo sapiens, UniProt P25021), measured IC50 of the molecule listed here: `CN1[C@@H]2CC[C@H]1C[C@@H](OC(=O)c1c[nH]c3ccccc13)C2`
Not Active
